Target Of Assay: T1, human TL1A extracellular domain with N-terminal HIS and FLAG tag (human, UniProt O95150 72-251)
T1 construct: the whole entry is named
T1 sequence: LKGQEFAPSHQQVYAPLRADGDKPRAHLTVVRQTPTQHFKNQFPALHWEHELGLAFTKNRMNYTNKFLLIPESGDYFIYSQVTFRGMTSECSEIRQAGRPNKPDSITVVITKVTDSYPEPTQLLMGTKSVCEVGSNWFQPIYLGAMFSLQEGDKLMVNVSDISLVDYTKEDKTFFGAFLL
Test Name: SPR Run 4, purified Ab captured on Protein A, TL1A 5 ug/mL, timepoint 44
Reported Metric: TL1A Binding Level (Early) (RU)
Numbers only here, please. The scale is RU.

Field: example entries. Status: answers known.
320-332 (antibody, human IgG1, name in Kabat numbering, V domains shown, human IgG1, lambda) VH: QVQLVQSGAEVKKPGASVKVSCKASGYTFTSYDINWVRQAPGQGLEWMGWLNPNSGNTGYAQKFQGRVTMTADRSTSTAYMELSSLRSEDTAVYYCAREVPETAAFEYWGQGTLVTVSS VL: QSVLTQPPSVSGAPGQRVTISCTSSSSDIGAGLGVHWYQQLPGTAPKLLIEGYYNRPSGVPDRFSGSKSGTSASLTITGLLPEDEGDYYCQSYAGTLSALFGGGTKLTVLG :: 66
320-350 (antibody, human IgG1, name in Kabat numbering, V domains shown, human IgG1, lambda) VH: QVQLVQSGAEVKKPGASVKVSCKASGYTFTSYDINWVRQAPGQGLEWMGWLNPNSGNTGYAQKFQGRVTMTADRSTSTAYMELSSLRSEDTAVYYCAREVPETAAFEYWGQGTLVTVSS VL: QSVLTQPPSVSGAPGQRVTISCTSSSSDIGAGLGVHWYQQLPGTAPKLLIEGYYNRPSGVPDRFSGSKSGTSASLTITGLLPEDEGDYYCQSYDGSLSALFGGGTKLTVLG :: 130

Fill in the blank: the reported TL1A Binding Level (Early) of 320-333 (antibody, human IgG1, name in Kabat numbering, V domains shown, human IgG1, lambda) VH: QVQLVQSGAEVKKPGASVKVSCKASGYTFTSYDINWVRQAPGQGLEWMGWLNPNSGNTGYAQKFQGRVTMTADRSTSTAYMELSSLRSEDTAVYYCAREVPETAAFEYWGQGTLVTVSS VL: QSVLTQPPSVSGAPGQRVTISCTSSSSDIGAGLGVHWYQQLPGTAPKLLIEGYYNRPSGVPDRFSGSKSGTSASLTITGLLPEDEGDYYCQSYSGTLSALFGGGTKLTVLG is ____. 95
